# Target of assay: T1, human GFRAL expressed on cells (human, UniProt Q6UXV0 20-394)
# T1 sequence: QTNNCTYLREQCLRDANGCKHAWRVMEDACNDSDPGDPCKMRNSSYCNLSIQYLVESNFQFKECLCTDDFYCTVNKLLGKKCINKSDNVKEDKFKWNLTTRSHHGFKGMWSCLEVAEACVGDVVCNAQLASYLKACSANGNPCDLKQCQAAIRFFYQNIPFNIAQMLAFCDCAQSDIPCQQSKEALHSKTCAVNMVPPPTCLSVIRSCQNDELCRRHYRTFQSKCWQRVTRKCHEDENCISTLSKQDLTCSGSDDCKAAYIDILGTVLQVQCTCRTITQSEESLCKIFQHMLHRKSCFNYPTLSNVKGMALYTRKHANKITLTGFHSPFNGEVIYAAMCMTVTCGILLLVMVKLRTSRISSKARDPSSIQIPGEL
# Method summary: cell-based or functional assay
Readout type: IC50, ERK phosphorylation in U2OS hGFRAL/hRET cells
The reply should read as a number followed by its unit.

(Q) For the binder shown here, humanized anti-GFRAL antibody HC-344h/LC-344h (antibody, IgG1, V domains shown, humanized 3P10) VH: QIQLVQSGAEVKKPGSSVKVSCKASGYTFTDYGVIWVRQAPGQGLKWMGWINTYTGEPTYADDLKGRVTFTADESTSTAYMELSSLRSEDTAVYYCARRYGPEDIDYWGQGTTVTVSS VL: DVVLTQSPLSLPVTLGQPASISCRASESVDNYGISFMSWFQQRPGQSPRLLIYAASHQGSGVPDRFSGSGSGTDFTLKISRVEAEDVGVYFCLQSKEVPWTFGGGTKVEIK , give the reported IC50, ERK phosphorylation in U2OS hGFRAL/hRET cells.
(A) 2.18 nM

Reference source: patent US20170306031A1
